Data provenance is patent US20230263822A1.

Could you please report measured ALT for the items listed next?
assay: Liver function, ALT, AST, bilirubin in cynomolgus monkeys (Example 45); type: in vivo; details: plasma; day 43; escalating dose regimen
Give bare numbers, in IU/L.

Examples with answers:
ISIS 416858: MOE gapmer, nucleobases 1275 to 1318 of SEQ ID NO: 1 (Table 8) (antisense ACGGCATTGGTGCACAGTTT; MOE gapmer, wing and gap sizes not given here): 36
ISIS 417002: MOE gapmer, nucleobases 1275 to 1318 of SEQ ID NO: 1 (Table 8) (antisense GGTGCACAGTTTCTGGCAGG; MOE gapmer, wing and gap sizes not given here): 35
ISIS 416850: MOE gapmer, nucleobases 1275 to 1318 of SEQ ID NO: 1 (Table 8) (antisense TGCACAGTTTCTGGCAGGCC; MOE gapmer, wing and gap sizes not given here): 43
ISIS 416838: MOE gapmer, nucleobases 1018 to 1042 of SEQ ID NO: 1 (Table 6) (antisense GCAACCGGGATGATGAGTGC; MOE gapmer, wing and gap sizes not given here): 35

Could you now consider this next substance?
Ask: Using the record for ISIS 416864: MOE gapmer, nucleobases 1275 to 1318 of SEQ ID NO: 1 (Table 8) (antisense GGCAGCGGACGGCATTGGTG; MOE gapmer, wing and gap sizes not given here) , report its ALT.
Result: 36
